Test system: HeLa Kyoto
Assay: thermal stability score vs G1/S (z-score of summed log2 fold changes over temperatures); higher = more thermally stable than in G1/S
Conditions: cell cycle stage: mitosis
measurementLabel: thermal stability score

* MPAVLGFEGSANKIGVGVVRDGKVLANPRRTYVTPPGTGFLPGDTARHHRAVILDLLQEALTESGLTSQDIDCIAYTKGPGMGAPLVSVAVVARTVAQLWNKPLVGVNHCIGHIEMGRLITGATSPTVLYVSGGNTQVIAYSEHRYRIFGETIDIAVGNCLDRFARVLKISNDPSPGYNIEQMAKRGKKLVELPYTVKGMDVSFSGILSFIEDVAHRMLATGECTPEDLCFSLQETVFAMLVEITERAMAHCGSQEALIVGGVGCNVRLQEMMATMCQERGARLFATDERFCIDNGAMIAQAGWEMFRAGHRTPLSDSGVTQRYRTDEVEVTWRD [OSGEP] | -1.39
* MEATTAGVGRLEEEALRRKERLKALREKTGRKDKEDGEPKTKHLREEEEEGEKHRELRLRNYVPEDEDLKKRRVPQAKPVAVEEKVKEQLEAAKPEPVIEEVDLANLAPRKPDWDLKRDVAKKLEKLKKRTQRAIAELIRERLKGQEDSLASAVDAATEQKTCDSD [CCDC12] | -2.79
* MAESPTEEAATAGAGAAGPGASSVAGVVGVSGSGGGFGPPFLPDVWAAAAAAGGAGGPGSGLAPLPGLPPSAAAHGAALLSHWDPTLSSDWDGERTAPQCLLRIKRDIMSIYKEPPPGMFVVPDTVDMTKIHALITGPFDTPYEGGFFLFVFRCPPDYPIHPPRVKLMTTGNNTVRFNPNFYRNGKVCLSILGTWTGPAWSPAQSISSVLISIQSLMTENPYHNEPGFEQERHPGDSKNYNECIRHETIRVAVCDMMEGKCPCPEPLRGVMEKSFLEYYDFYEVACKDRLHLQGQTMQDPFGEKRGHFDYQSLLMRLGLIRQKVLERLHNENAEMDSDSSSSGTETDLHGSLRV [UBE2Z] | -0.398
* MDRTCEERPAEDGSDEEDPDSMEAPTRIRDTPEDIVLEAPASGLAFHPARDLLAAGDVDGDVFVFSYSCQEGETKELWSSGHHLKACRAVAFSEDGQKLITVSKDKAIHVLDVEQGQLERRVSKAHGAPINSLLLVDENVLATGDDTGGICLWDQRKEGPLMDMRQHEEYIADMALDPAKKLLLTASGDGCLGIFNIKRRRFELLSEPQSGDLTSVTLMKWGKKVACGSSEGTIYLFNWNGFGATSDRFALRAESIDCMVPVTESLLCTGSTDGVIRAVNILPNRVVGSVGQHTGEPVEELALSHCGRFLASSGHDQRLKFWDMAQLRAVVVDDYRRRKKKGGPLRALSSKTWSTDDFFAGLREEGEDSMAQEEKEETGDDSD [WDR55] | -1.73
* MNGRVDYLVTEEEINLTRGPSGLGFNIVGGTDQQYVSNDSGIYVSRIKENGAAALDGRLQEGDKILSVNGQDLKNLLHQDAVDLFRNAGYAVSLRVQHRLQVQNGPIGHRGEGDPSGIPIFMVLVPVFALTMVAAWAFMRYRQQL [SYNJ2BP] | 1.39
* MAPWGKRLAGVRGVLLDISGVLYDSGAGGGTAIAGSVEAVARLKRSRLKVRFCTNESQKSRAELVGQLQRLGFDISEQEVTAPAPAACQILKEQGLRPYLLIHDGVRSEFDQIDTSNPNCVVIADAGESFSYQNMNNAFQVLMELEKPVLISLGKGRYYKETSGLMLDVGPYMKALEYACGIKAEVVGKPSPEFFKSALQAIGVEAHQAVMIGDDIVGDVGGAQRCGMRALQVRTGKFRPSDEHHPEVKADGYVDNLAEAVDLLLQHADK [LHPP] | -2.15
* MERKISRIHLVSEPSITHFLQVSWEKTLESGFVITLTDGHSAWTGTVSESEISQEADDMAMEKGKYVGELRKALLSGAGPADVYTFNFSKESCYFFFEKNLKDVSFRLGSFNLEKVENPAEVIRELICYCLDTIAENQAKNEHLQKENERLLRDWNDVQGRFEKCVSAKEALETDLYKRFILVLNEKKTKIRSLHNKLLNAAQEREKDIKQEGETAICSEMTADRDPVYDESTDEESENQTDLSGLASAAVSKDDSIISSLDVTDIAPSRKRRQRMQRNLGTEPKMAPQENQLQEKENSRPDSSLPETSKKEHISAENMSLETLRNSSPEDLFDEI [XRCC4] | -0.497
* MSERKVLNKYYPPDFDPSKIPKLKLPKDRQYVVRLMAPFNMRCKTCGEYIYKGKKFNARKETVQNEVYLGLPIFRFYIKCTRCLAEITFKTDPENTDYTMEHGATRNFQAEKLLEEEEKRVQKEREDEELNNPMKVLENRTKDSKLEMEVLENLQELKDLNQRQAHVDFEAMLRQHRLSEEERRRQQQEEDEQETAALLEEARKRRLLEDSDSEDEAAPSPLQPALRPNPTAILDEAPKPKRKVEVWEQSVGSLGSRPPLSRLVVVKKAKADPDCSNGQPQAAPTPGAPQNRKEANPTPLTPGASSLSQLGAYLDSDDSNGSN [CCDC94] | 0.409
* MAAPSGGWNGVGASLWAALLLGAVALRPAEAVSEPTTVAFDVRPGGVVHSFSHNVGPGDKYTCMFTYASQGGTNEQWQMSLGTSEDHQHFTCTIWRPQGKSYLYFTQFKAEVRGAEIEYAMAYSKAAFERESDVPLKTEEFEVTKTAVAHRPGAFKAELSKLVIVAKASRTEL [MYDGF] | 0.789
* MADDQGCIEEQGVEDSANEDSVDAKPDRSSFVPSLFSKKKKNVTMRSIKTTRDRVPTYQYNMNFEKLGKCIIINNKNFDKVTGMGVRNGTDKDAEALFKCFRSLGFDVIVYNDCSCAKMQDLLKKASEEDHTNAACFACILLSHGEENVIYGKDGVTPIKDLTAHFRGDRCKTLLEKPKLFFIQACRGTELDDGIQADSGPINDTDANPRYKIPVEADFLFAYSTVPGYYSWRSPGRGSWFVQALCSILEEHGKDLEIMQILTRVNDRVARHFESQSDDPHFHEKKQIPCVVSMLTKELYFSQ [CASP7] | -2.43

----------
Tested on: HeLa Kyoto
Assay: solubility in G1/S (NP-40 vs SDS abundance) (log2 ratio); higher = more soluble
Conditions: cell cycle stage: G1/S
Measured solubility in G1/S (log2), listed per entry.
measurementLabel: solubility in G1/S (log2)

* MEDDAPVIYGLEFQARALTPQTAETDAIRFLVGTQSLKYDNQIHIIDFDDENNIINKNVLLHQAGEIWHISASPADRGVLTTCYNRTSDSKVLTCAAVWRMPKELESGSHESPDDSSSTAQTLELLCHLDNTAHGNMACVVWEPMGDGKKIISLADNHILLWDLQESSSQAVLASSASLEGKGQLKFTSGRWSPHHNCTQVATANDTTLRGWDTRSMSQIYCIENAHGQLVRDLDFNPNKQYYLASCGDDCKVKFWDTRNVTEPVKTLEEHSHWVWNVRYNHSHDQLVLTGSSDSRVILSNMVSISSEPFGHLVDDDDISDQEDHRSEEKSKEPLQDNVIATYEEHEDSVYAVDWSSADPWLFASLSYDGRLVINRVPRALKYHILL [TSSC1] | 0.0334
* MMAGCGEIDHSINMLPTNRKANESCSNTAPSLTVPECAICLQTCVHPVSLPCKHVFCYLCVKGASWLGKRCALCRQEIPEDFLDKPTLLSPEELKAASRGNGEYAWYYEGRNGWWQYDERTSRELEDAFSKGKKNTEMLIAGFLYVADLENMVQYRRNEHGRRRKIKRDIIDIPKKGVAGLRLDCDANTVNLARESSADGADSVSAQSGASVQPLVSSVRPLTSVDGQLTSPATPSPDASTSLEDSFAHLQLSGDNTAERSHRGEGEEDHESPSSGRVPAPDTSIEETESDASSDSEDVSAVVAQHSLTQQRLLVSNANQTVPDRSDRSGTDRSVAGGGTVSVSVRSRRPDGQCTVTEV [RNF146] | -0.244

----------
Measured melting temperature, listed per entry.
Test system: HeLa Kyoto
Assay: melting temperature (median over replicates), in situ; higher = more thermally stable
Details: cell cycle stage: mitosis
measurementLabel: melting temperature

- MSSDFEGYEQDFAVLTAEITSKIARVPRLPPDEKKQMVANVEKQLEEAKELLEQMDLEVREIPPQSRGMYSNRMRSYKQEMGKLETDFKRSRIAYSDEVRNELLGDDGNSSENQRAHLLDNTERLERSSRRLEAGYQIAVETEQIGQEMLENLSHDREKIQRARERLRETDANLGKSSRILTGMLRRIIQNRILLVILGIIVVITILMAITFSVRRH [VTI1A]: 55.8 °C
- MAAYKLVLIRHGESAWNLENRFSGWYDADLSPAGHEEAKRGGQALRDAGYEFDICFTSVQKRAIRTLWTVLDAIDQMWLPVVRTWRLNERHYGGLTGLNKAETAAKHGEAQVKIWRRSYDVPPPPMEPDHPFYSNISKDRRYADLTEDQLPSCESLKDTIARALPFWNEEIVPQIKEGKRVLIAAHGNSLRGIVKHLEGLSEEAIMELNLPTGIPIVYELDKNLKPIKPMQFLGDEETVRKAMEAVAAQGKAKK [PGAM1]: 57.8 °C
- MKGSRIELGDVTPHNIKQLKRLNQVIFPVSYNDKFYKDVLEVGELAKLAYFNDIAVGAVCCRVDHSQNQKRLYIMTLGCLAPYRRLGIGTKMLNHVLNICEKDGTFDNIYLHVQISNESAIDFYRKFGFEIIETKKNYYKRIEPADAHVLQKNLKVPSGQNADVQKTDN [NAA50]: 53.8 °C
